Values compiled from patent US20170210813A1.

I'd be grateful if you could share measured pKd for these entries.
- experimental_target: T1, hPDGFRb.mmh (human, UniProt P09619 33-531)
- T1 construct: Soluble monomeric construct; also called soluble human PDGFR-beta.mmh
- T1 sequence (P09619 other isoform, or with tags, fused parts or gaps): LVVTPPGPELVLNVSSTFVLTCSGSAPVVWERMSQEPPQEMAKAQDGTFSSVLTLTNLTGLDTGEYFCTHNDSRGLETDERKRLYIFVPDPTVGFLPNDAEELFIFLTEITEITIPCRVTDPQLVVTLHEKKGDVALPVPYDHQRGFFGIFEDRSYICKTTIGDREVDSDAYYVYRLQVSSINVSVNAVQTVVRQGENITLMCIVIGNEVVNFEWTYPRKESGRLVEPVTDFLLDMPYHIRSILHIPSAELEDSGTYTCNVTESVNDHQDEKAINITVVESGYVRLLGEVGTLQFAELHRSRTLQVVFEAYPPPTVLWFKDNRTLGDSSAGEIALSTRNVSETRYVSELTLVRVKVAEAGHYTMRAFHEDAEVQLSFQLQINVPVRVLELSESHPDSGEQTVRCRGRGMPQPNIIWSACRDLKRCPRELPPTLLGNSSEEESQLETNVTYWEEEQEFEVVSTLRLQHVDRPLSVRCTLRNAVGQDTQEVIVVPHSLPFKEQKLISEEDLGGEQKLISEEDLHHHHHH
- assay_method_text: SPR, mAb captured, 37 C
Keep in mind that pKd stands for -log10 of concentration in molar terms.

Indicate its recorded pKd; the binder in question is H4H3095S (antibody, human IgG4, V domains shown, human IgG4 Fc (H4H prefix)) VH: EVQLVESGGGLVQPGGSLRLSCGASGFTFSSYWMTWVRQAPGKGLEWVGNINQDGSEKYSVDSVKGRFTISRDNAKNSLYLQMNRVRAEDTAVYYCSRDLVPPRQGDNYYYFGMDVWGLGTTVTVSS VL: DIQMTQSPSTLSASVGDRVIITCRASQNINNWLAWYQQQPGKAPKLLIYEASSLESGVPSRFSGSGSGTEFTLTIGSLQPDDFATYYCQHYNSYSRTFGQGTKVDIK
7.86

Complete the entry with pKd for H1M3361N (antibody, mouse IgG1, V domains shown, mouse IgG1 Fc (H1M prefix)) VH: EVQLVESGGGLVQPGGSLRLSCAASGFTFSSYWMTWVRQAPGKGLEWVANIRQDGSDKYYVDSVKGRFTISRDNAKNSLFLQMNSLRAEDTAVYYCARTNGGTYGYNHYYYGMDVWGQGTTVTVSS VL: DIQMTQSPSSLSASVGDRVTITCRASQGIRNDLGWYQLKPGKAPKRLIFAASSLQSGVPSRFSGSGSGTEFTLTISSLQPEDFATYYCLQHNSYPWTFGQGTKVEIK
7.56

Complete the entry with pKd for H4H3094P (antibody, human IgG4, V domains shown, also called H4H3394P) VH: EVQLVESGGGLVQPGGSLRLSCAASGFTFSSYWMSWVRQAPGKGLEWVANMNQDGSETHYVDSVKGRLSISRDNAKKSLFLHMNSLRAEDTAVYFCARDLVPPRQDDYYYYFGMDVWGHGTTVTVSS VL: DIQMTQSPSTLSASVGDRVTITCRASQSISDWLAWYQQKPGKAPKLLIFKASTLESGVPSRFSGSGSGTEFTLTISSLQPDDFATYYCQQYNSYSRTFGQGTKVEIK
8.18
